assay-method-text: mRNA encapsulation efficiency of lipid nanoparticles
Type: physicochemical
run-parameters: LNP with cationic lipid CL-A
Listed here: items and their measured Encapsulation efficiency (EE).

compound	display-unit	Encapsulation efficiency (EE)
CCCCCCCCC(CCCCCCCC)OC(=O)CCCCCCC(=O)OC[C@H](COP(=O)(O)OCCN(C)C)OC(=O)CCCCCCC(=O)OC(CCCCCCCC)CCCCCCCC	%	96
CC(C)CCCCOC(=O)CCCCCCC(=O)OCC(COP(=O)(O)OCCN)OC(=O)CCCCCCC(=O)OCCCCC(C)C (stereo not shown)	%	69
CCCCCCCCC(CCCCC)COC(=O)CCC(=O)OCC(COP(=O)(O)OCCN)OC(=O)CCC(=O)OCC(CCCCC)CCCCCCCC (stereo not shown) [Compound 5]	%	91
CCCCCCCCC(CCCCCCCC)OC(=O)CCCCCCC(=O)OCC(COP(=O)(O)OCC[N+](C)(C)C)OC(=O)CCCCCCC(=O)OC(CCCCCCCC)CCCCCCCC (stereo not shown)	%	94
CCCCCCCCC(CCCCCCCC)OC(=O)CCCCCCC(=O)OC[C@@H](COP(=O)(O)OCCN(C)C)OC(=O)CCCCCCC(=O)OC(CCCCCCCC)CCCCCCCC	%	94
CCCCCCCCC(CCCCCCCC)C(=O)OCCCCCC(=O)OCC(COP(=O)(O)OCCN(C)C)OC(=O)CCCCCOC(=O)C(CCCCCCCC)CCCCCCCC (stereo not shown)	%	93
CCCCCCCCCC(CCCCCCCCC)C(=O)OCC(COP(=O)(O)OCCN(C)C)OC(=O)C(CCCCCCCCC)CCCCCCCCC (stereo not shown)	%	84
CCCCCCCCC(CCCCCCCC)OC(=O)CCCCCCC(=O)OCC(COP(=O)(O)OCCN(C)CCCO)OC(=O)CCCCCCC(=O)OC(CCCCCCCC)CCCCCCCC (stereo not shown)	%	94
CCCCCCCCCCC(CCCCCCCCCC)OC(=O)CCCCCCC(=O)OCC(COP(=O)(O)OCCN(C)C)OC(=O)CCCCCCC(=O)OC(CCCCCCCCCC)CCCCCCCCCC (stereo not shown)	%	94
CCCCCCCCC(CCCCCCCC)OC(=O)CCCCCC(=O)OCC(COP(=O)(O)OCCN(C)C)OC(=O)CCCCCC(=O)OC(CCCCCCCC)CCCCCCCC (stereo not shown)	%	95
CCCCCCCCC(CCCCCCCC)OC(=O)CCCCCCC(=O)OCC(COP(=O)(O)OCCN)OC(=O)CCCCCCC(=O)OC(CCCCCCCC)CCCCCCCC (stereo not shown)	%	90
CCCCCCCCOC(=O)CCCCCCCC(=O)OC(COC(=O)CCCCCCC(=O)OC(CCCCCCCC)CCCCCCCC)COP(=O)(O)OCCN(C)C (stereo not shown)	%	94
CC(C)CCCCOC(=O)CCCCCCC(=O)OCC(COP(=O)(O)OCCN(C)C)OC(=O)CCCCCCC(=O)OCCCCC(C)C (stereo not shown)	%	89
CCCCCCCCC(CCCCCCCC)C(=O)OCCCCCCC(=O)OCC(COP(=O)(O)OCCN(C)C)OC(=O)CCCCCCOC(=O)C(CCCCCCCC)CCCCCCCC (stereo not shown)	%	93
CCCCCCCCC(CCCCC)COC(=O)CCC(=O)OCC(COP(=O)(O)OCCN)OC(=O)CCC(=O)OCC(CCCCC)CCCCCCCC (stereo not shown) [Compound 4]	%	85
CCCCCCCC/C=C\CCCCCCCC(=O)OC[C@H](COP(=O)(O)OCCN)OC(=O)CCCCCCC/C=C\CCCCCCCC [DOPE, dioleoylphosphatidylethanolamine, reference compound]	%	91
CCCCCCCCC(CCCCC)COC(=O)CCC(=O)OCC(COP(=O)(O)OCCN(C)C)OC(=O)CCC(=O)OCC(CCCCC)CCCCCCCC (stereo not shown)	%	90
CCCCCCCCC(CCCCCCCC)OC(=O)CCCCCCC(=O)OCC(COP(=O)(O)OCCN(C)CCO)OC(=O)CCCCCCC(=O)OC(CCCCCCCC)CCCCCCCC (stereo not shown)	%	93
CCCCCCCCC(CCCCCCCC)OC(=O)CCCCCCC(=O)OCC(COP(=O)(O)OCCN(C)C)OC(=O)CCCCCCC(=O)OC(CCCCCCCC)CCCCCCCC (stereo not shown)	%	93
CCCCCCCCOC(=O)CCCCCCCC(=O)OCC(COP(=O)(O)OCCN(C)C)OC(=O)CCCCCCCC(=O)OCCCCCCCC (stereo not shown)	%	88
CCCCCCCCC(CCCCCCCC)OC(=O)CCCCCCCC(=O)OCC(COP(=O)(O)OCCN(C)C)OC(=O)CCCCCCCC(=O)OC(CCCCCCCC)CCCCCCCC (stereo not shown)	%	95
CCCCCCCCCC(CCCCCCCCC)C(=O)OCC(COP(=O)(O)OCCN)OC(=O)C(CCCCCCCCC)CCCCCCCCC (stereo not shown)	%	65

Source listed as patent US20260224688A1.
